Would you kindly list Kp at 24 h for each of these molecules?
Test: Pharmacokinetic test in rats
Assay type: in vivo, SD rats
Conditions: male, SD, rat, brain/plasma, intravenous, 2.5 mg/kg; rats, 24 h after administration; read-out: Brain/Plasma Ratio (24 h)

| Molecule | Kp at 24 h |
| --- | --- |
| O=C(NC1CC1)c1ccc(N2CCN(Cc3ccc4nc(C(F)F)c(=O)[nH]c4c3F)CC2)c(F)n1 [Compound 12] | 1.5 |
| Cn1cc(NC(=O)c2ccc(N3CCN(Cc4ccc5nc(C(F)F)c(=O)[nH]c5c4F)CC3)c(F)n2)cn1 [Compound 15] | 0.916 |

Moving on to another molecule below.
[in] Fill blank: measured Kp at 24 h of the molecule Cc1nc2ccc(CN3CCN(c4ccc(C(=O)N[C@@H]5C[C@@H]5F)nc4F)CC3)c(F)c2[nH]c1=O [Compound 4] is ____.
[out] 0.315

---

Could you please report measured AUC(0-t) for the items listed next?
Assay: Pharmacokinetic test in rats
Format: in vivo, SD rats
Conditions: male, SD, rat, iv; rats, i.v. 2.5 mg/kg, plasma
Numbers only, in ng·h/mL.

| Compound | Quantity unit | AUC(0-t) |
| --- | --- | --- |
| O=C(NC1CC1)c1ccc(N2CCN(Cc3ccc4nc(C(F)F)c(=O)[nH]c4c3F)CC2)c(F)n1 [Compound 12] | ng·h/mL | 14500 |
| Cn1cc(C(=O)Nc2ccc(N3CCN(Cc4ccc5nc(C(F)F)c(=O)[nH]c5c4F)CC3)c(F)n2)cn1 [Compound 14] | ng·h/mL | 48700 |
| Cc1nc2ccc(CN3CCN(c4ccc(C(=O)N[C@@H]5C[C@@H]5F)nc4F)CC3)c(F)c2[nH]c1=O [Compound 4] | ng·h/mL | 7390 |
| Cn1cc(NC(=O)c2ccc(N3CCN(Cc4ccc5nc(C(F)F)c(=O)[nH]c5c4F)CC3)c(F)n2)cn1 [Compound 15] | ng·h/mL | 25800 |

Lab note: next compound to report on.
[in] Which AUC(0-t) value is on record for Cn1cc(C(=O)Nc2ccc(N3CCN(Cc4ccc5nc(C(F)F)c(=O)[nH]c5c4F)CC3)c(F)n2)c(F)n1 [Compound 18] ?
[out] 22000

---

Test: Pharmacokinetic test in monkeys
Format: in vivo, cynomolgus monkeys
Settings: male, cynomolgus monkey, iv; monkeys, i.v. (0.5 mg/kg), plasma; read-out: Vdss
Measurement kind: Vd (L/kg)
Numbers only, in L/kg.

[in] # lookup: Vd of O=C(NC1CC1)c1ccc(N2CCN(Cc3ccc4nc(C(F)F)c(=O)[nH]c4c3F)CC2)c(F)n1 [Compound 12]
[out] 0.419

---

Experiment: Pharmacokinetic test in mice
Type: in vivo, Balb/c mice
Conditions: male, Balb/c, mouse, iv; mice, i.v. 2.5 mg/kg, plasma
Description: 4.1 Experimental animal: male Balb/c mice, 20-25 g, 12 mice/compound, purchased from Chengdu Ddossy Experimental Animals Co., Ltd. 4.2 Experimental design: on the day of the test, 60 Balb/c mice were randomly grouped according to their body weights. […] Before and after the administration, 0.06 mL ofblood was taken from the orbit of the animals under isoflurane anesthesia and placed in an EDTAK2 centrifuge tube. […] The samples were analyzed quantitatively by LC-MS/MS.
For each of the molecules below, state its clearance.
Numbers only, in mL/min/kg.

Please review the following examples before continuing.
| Molecule | clearance [mL/min/kg] |
| --- | --- |
| Cn1cc(NC(=O)c2ccc(N3CCN(Cc4ccc5nc(C(F)F)c(=O)[nH]c5c4F)CC3)c(F)n2)cn1 [Compound 15] | 2.57 |
| O=C(NC1CC1)c1ccc(N2CCN(Cc3ccc4nc(C(F)F)c(=O)[nH]c4c3F)CC2)c(F)n1 [Compound 12] | 2.16 |
| Cc1nc2ccc(CN3CCN(c4ccc(C(=O)N[C@H]5C[C@H]5F)nc4F)CC3)c(F)c2[nH]c1=O [Compound 5] | 15.2 |

Hey, can you go through the list below and give me clearance for every item?
1. Cn1cc(C(=O)Nc2ccc(N3CCN(Cc4ccc5nc(C(F)F)c(=O)[nH]c5c4F)CC3)c(F)n2)c(F)n1 [Compound 18]
2. Cc1nc2ccc(CN3CCN(c4ccc(C(=O)Nc5cnn(C)c5)nc4F)CC3)c(F)c2[nH]c1=O [Compound 2]

[out]
1: 5.14; 2: 21.6
